Biological target: norepinephrine transporter (UniProt Q9WTR4)
Assay: Inhibition of [3H]nisoxetine radioligand binding at the norepinephrine transporter
Conditions: NEN=[3H] nisoxetine; read-out: NEN IC50 for inhibition of radioligand binding
Description: Illustrative in vitro assays for binding are described in Boja et al Ann. NY Acad. Sci. 654:282-291 (1992), which is incorporated herein by reference in its entirety. […] Alternatively, the compounds may be analyzed by their ability to inhibit reuptake of a labelled neurotransmitter in a sample, in particular, in synaptosomes.
measurement_label: IC50 (nM)

{"molecule": "O=C1CCN2C3CCC2C1C(c1ccc(Cl)cc1)C3 (centres unmarked) [RTI-4229-243]", "measured": 540}
{"molecule": "COC(=O)C1CN2C3CCC2C(C1=O)C(c1ccc(Cl)cc1)C3 (centres unmarked) [RTI-4229-242]", "measured": 510}

* * *

biological target: serotonin transporter (Rattus norvegicus, UniProt P31652); construct: from tissue; test: Inhibition of [3H]paroxetine radioligand binding at the serotonin transporter; conditions: 5-HT IC50 for inhibition of radioligand binding, 5-HT=[3H] paroxetine
Sequence (P31652 whole entry): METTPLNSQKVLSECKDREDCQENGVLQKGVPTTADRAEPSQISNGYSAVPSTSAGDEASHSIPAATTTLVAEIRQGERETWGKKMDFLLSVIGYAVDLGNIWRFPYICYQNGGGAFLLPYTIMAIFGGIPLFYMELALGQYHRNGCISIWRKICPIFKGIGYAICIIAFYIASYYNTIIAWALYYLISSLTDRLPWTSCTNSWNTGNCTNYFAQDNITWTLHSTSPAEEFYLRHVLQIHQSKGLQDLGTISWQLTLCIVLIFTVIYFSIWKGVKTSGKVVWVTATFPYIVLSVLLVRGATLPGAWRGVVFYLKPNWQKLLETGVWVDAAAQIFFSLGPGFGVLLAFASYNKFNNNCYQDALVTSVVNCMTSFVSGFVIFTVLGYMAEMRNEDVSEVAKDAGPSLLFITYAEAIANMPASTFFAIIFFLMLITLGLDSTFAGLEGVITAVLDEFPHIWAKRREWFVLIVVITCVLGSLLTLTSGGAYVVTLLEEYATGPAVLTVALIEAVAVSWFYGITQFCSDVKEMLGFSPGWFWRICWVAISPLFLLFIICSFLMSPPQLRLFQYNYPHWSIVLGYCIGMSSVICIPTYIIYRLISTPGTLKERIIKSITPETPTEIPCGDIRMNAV
Counter-ions that a name gives are not always drawn.
Threshold 2000 nM: IC50 strictly smaller gives true, otherwise false.

{"molecule": "COC(=O)[C@@H]1C2CCC(C[C@@H]1c1ccc(I)cc1)N2 (stereo partly drawn)", "label_value": "true"}
{"molecule": "CN1C2CCC1[C@@H](c1cc(-c3ccc(F)cc3)no1)[C@@H](c1ccc(Cl)cc1)C2 (stereo partly drawn)", "label_value": "false"}
{"molecule": "Cc1ccc(C2CC3CCC([C@H]2c2nc(-c4ccccc4)no2)N3C)cc1 (stereo partly drawn)", "label_value": "true"}
{"molecule": "COC(=O)C1C2CCC(CC1c1ccc(C)c(I)c1)N2 (stereo not drawn)", "label_value": "true"}
{"molecule": "CN1C2CCC1C(COC(=O)c1ccccc1)C(c1ccc(Cl)cc1)C2 (stereo not drawn)", "label_value": "true"}
{"molecule": "CN1C2CCC1C(c1nnc(-c3ccccc3)s1)C(c1ccc(Cl)cc1)C2 (stereo not drawn) [RTI-4229-200, Hydrochloride]", "label_value": "false"}
{"molecule": "O=C1CCN2C3CCC2C1C(c1ccc(Cl)cc1)C3 (stereo not drawn)", "label_value": "true"}
{"molecule": "COC(=O)C1C(c2ccc(Br)cc2)CC2CCC1N2C (stereo not drawn)", "label_value": "true"}
{"molecule": "CC1C(c2ccc(Cl)cc2)CC2CCC1N2C (stereo not drawn)", "label_value": "true"}
{"molecule": "COC(=O)[C@@H]1C2CCC(C[C@@H]1c1ccc(N)c(Br)c1)N2C (stereo partly drawn)", "label_value": "true"}
{"molecule": "Cc1ccc([C@H]2C[C@@H]3CC[C@H]([C@H]2c2cc(-c4ccccc4)no2)N3C)cc1 [RTI-4229-176, Hydrochloride]", "label_value": "false"}
{"molecule": "CC(=O)OC[C@@H]1C2CCC(C[C@@H]1c1ccc(Cl)cc1)N2C (stereo partly drawn)", "label_value": "true"}
{"molecule": "Cc1noc([C@@H]2C(c3ccccc3)CC3CCC2N3C)n1 (stereo partly drawn)", "label_value": "false"}
{"molecule": "Cc1noc(C2C(c3ccccc3)CC3CCC2N3C)n1 (stereo not drawn) [RTI-4229-87]", "label_value": "false"}
{"molecule": "CC(C)c1cc([C@@H]2C3CCC(C[C@@H]2c2ccc(Cl)cc2)N3C)on1 (stereo partly drawn)", "label_value": "false"}
{"molecule": "CC(C)OC(=O)C1C(c2ccc(I)cc2)CC2CCC1N2C (stereo not drawn)", "label_value": "true"}
{"molecule": "CN1C2CCC1C(COc1ccc(I)cc1)C(c1ccc(Cl)cc1)C2 (stereo not drawn)", "label_value": "true"}
{"molecule": "Cc1ccc(C2CC3CCC(C2C(C)C)N3C)cc1 (stereo not drawn)", "label_value": "true"}

* * *

target: UniProtKB Q9WTR4; assay: Inhibition of [3H]nisoxetine radioligand binding at the norepinephrine transporter; details: read-out: IC50 NE [3H]-nisoxetine; Table II
Structures can show the parent of a compound that is named as a salt.
measurement_label: IC50

{"molecule": "CN1[C@H]2CC[C@@H]1[C@@H](c1nnc(-c3ccccc3)o1)[C@@H](c1ccc(Cl)cc1)C2 [RTI-4229-188, Hydrochloride]", "measurement_label": "IC50", "measured": "929 nM"}
{"molecule": "CN1[C@H]2CC[C@@H]1[C@@H](c1ncc(-c3ccccc3)o1)[C@@H](c1ccc(Cl)cc1)C2 [RTI-4229-189, Tartrate]", "measurement_label": "IC50", "measured": "496 nM"}
{"molecule": "Cc1ccc([C@H]2C[C@@H]3CC[C@H]([C@H]2c2ncc(-c4ccccc4)o2)N3C)cc1 [RTI-4229-178, Tartrate]", "measurement_label": "IC50", "measured": "677 nM"}

* * *

This section presents compounds with their documented pIC50 values.
molecular target: UniProtKB P23977; format: binding; details: read-out: DA IC50 for inhibition of radioligand binding; DA=[3H]WIN 35,428
pIC50: −log10 of the molar value.

{"compound": "Cc1noc(C2C(c3ccccc3)CC3CCC2N3C)n1 (stereo not drawn) [RTI-4229-87]", "pIC50": 6.69}
{"compound": "CCC#Cc1ccc(C2CC3CCC(N3)C2C(=O)OC)cc1 (stereo not drawn)", "pIC50": 8.21}
{"compound": "Cc1ccc(C2CC3CCC([C@H]2C(=O)OC2CCC2)N3C)cc1 (stereo partly drawn)", "pIC50": 8.43}
{"compound": "Cc1noc([C@@H]2C3CCC(C[C@H]2c2ccccc2)N3C)n1 (stereo partly drawn)", "pIC50": 6.78}
{"compound": "CC(=O)OC[C@@H]1C2CCC(C[C@@H]1c1ccc(Cl)cc1)N2C (stereo partly drawn)", "pIC50": 8.80}
{"compound": "COc1ccc(-c2cc([C@@H]3C4CCC(C[C@@H]3c3ccc(Cl)cc3)N4C)on2)cc1 (stereo partly drawn)", "pIC50": 8.80}
{"compound": "COC(=O)CC1C(c2ccc(C)cc2)CC2CCC1N2C (stereo not drawn)", "pIC50": 8.99}
{"compound": "CN1C2CCC1C(C(=O)NCO)C(c1ccc(Cl)cc1)C2 (stereo not drawn)", "pIC50": 8.69}
{"compound": "Cc1ccc(C2CC3CCC([C@H]2c2nc(-c4ccccc4)no2)N3C)cc1 (stereo partly drawn)", "pIC50": 8.63}

* * *

// values below are reported IC50
target: serotonin transporter (Rattus norvegicus); construct: from tissue; assay: Inhibition of [3H]paroxetine radioligand binding at the serotonin transporter; conditions: IC50 5-HT [3H]-paroxetine, Table IV
measurement_label: IC50 (nM)

{"molecule": "CN1[C@H]2CC[C@@H]1[C@@H](C(=O)O)[C@@H](c1ccc(F)cc1)C2", "measurement_label": "IC50", "qualifier_sign": ">", "measured": 100}
{"molecule": "CNC[C@H]1[C@@H](c2ccc(C)cc2)C[C@@H]2CC[C@H]1N2C", "measurement_label": "IC50", "qualifier_sign": "=", "measured": 2250}
{"molecule": "Cc1ccc(C2CC3CCC(C2C(C)C)N3C)cc1 (stereo not shown)", "measurement_label": "IC50", "qualifier_sign": "=", "measured": 114}
{"molecule": "CN1C2CCC1C(COC(=O)c1ccccc1)C(c1ccc(Cl)cc1)C2 (stereo not shown)", "measurement_label": "IC50", "qualifier_sign": "=", "measured": 3.53}

* * *

tested on: dopamine transporter; assay type: binding; conditions: ratio of IC50 values, Table II
Where a name gives a salt, the structure may show the parent alone.
Mark YES only for 5-HT/DA Ratio values smaller than 800; exact matches and larger values are NO.

{"molecule": "Cc1ccc([C@H]2C[C@@H]3CC[C@H]([C@H]2c2nnc(-c4ccccc4)s2)N3C)cc1 [RTI-4229-199, Hydrochloride]", "target_desc": "dopamine transporter", "label_value": "NO"}
{"molecule": "CN1[C@H]2CC[C@@H]1[C@@H](c1cc(-c3ccccc3)no1)[C@@H](c1ccc(I)cc1)C2 [RTI-4229-181, Hydrochloride]", "target_desc": "dopamine transporter", "label_value": "YES"}
{"molecule": "CN1C2CCC1C(c1nnc(-c3ccccc3)s1)C(c1ccc(Cl)cc1)C2 (centres unmarked) [RTI-4229-200, Hydrochloride]", "target_desc": "dopamine transporter", "label_value": "NO"}
{"molecule": "Cc1ccc([C@H]2C[C@@H]3CC[C@H]([C@H]2c2cc(-c4ccccc4)no2)N3C)cc1 [RTI-4229-176, Hydrochloride]", "target_desc": "dopamine transporter", "label_value": "NO"}
{"molecule": "Cc1ccc([C@H]2C[C@@H]3CC[C@H]([C@H]2c2ncc(-c4ccccc4)o2)N3C)cc1 [RTI-4229-178, Tartrate]", "target_desc": "dopamine transporter", "label_value": "YES"}
{"molecule": "Cc1ccc(C2CC3CCC(C2c2cc(C)no2)N3C)cc1.Cl (centres unmarked)", "target_desc": "dopamine transporter", "label_value": "NO"}
{"molecule": "CN1[C@H]2CC[C@@H]1[C@@H](c1ncc(-c3ccccc3)o1)[C@@H](c1ccc(Cl)cc1)C2 [RTI-4229-189, Tartrate]", "target_desc": "dopamine transporter", "label_value": "YES"}
